assay: Parallel Artificial Membrane Permeability Assay (PAMPA); type: in vitro ADME; conditions: 200 μM, pH 7.4, 20% 1-propanol cosolvent, 4 h
Hi! Just check whether % PAMPA Transport after 4h is below 2%. Below gives Condition met, equal or above gives Condition not met.

The following compounds have reported results that may help.
>  <COMPOUND>
COc1ccc2c3c1O[C@@H]1[C@]34CCN(C(=O)[C@H](CCSC)NC(=O)[C@H](Cc3ccccc3)NC(=O)CNC(=O)CNC(=O)[C@@H](N)Cc3ccc(O)cc3)[C@H](C2)[C@]42CC[C@@]1(OC)/C(=C(/C)C(C)(C)C)C2

>  <DISCRETE LABEL>
Condition not met

$$$$
>  <COMPOUND>
CO[C@]12CC[C@@]3(CC1=C(C)C(C)(C)C)[C@H]1Cc4ccc(O)c5c4[C@@]3(CCN1C(=O)c1ccccc1C(=O)N[C@@H](Cc1ccc(O)cc1)C(=O)NCC(=O)NCC(=O)N[C@@H](Cc1ccccc1)C(=O)N[C@@H](CC(C)C)C(=O)O)[C@H]2O5

>  <DISCRETE LABEL>
Condition met

$$$$
>  <COMPOUND>
CC(C)C[C@H](NC(=O)[C@H](Cc1ccccc1)NC(=O)CNC(=O)CNC(=O)[C@@H](N)Cc1ccc(O)cc1)C(=O)O [Standard Leu-enkephalin, Leu-enkephalin, reference compound]

>  <DISCRETE LABEL>
Condition met

$$$$
>  <COMPOUND>
CO[C@]12CC[C@@]3(CC1=C(C)C(C)(C)C)[C@H]1Cc4ccc(O)c5c4[C@@]3(CCN1C(=O)CCC(=O)N[C@@H](Cc1ccc(O)cc1)C(=O)NCC(=O)NCC(=O)N[C@@H](Cc1ccccc1)C(=O)N[C@@H](CC(C)C)C(=O)O)[C@H]2O5

>  <DISCRETE LABEL>
Condition met

$$$$

Now look at this entry.
// query Is % PAMPA Transport after 4h of CC(C)NCC(O)COc1cccc2ccccc12 (centres unmarked) [Propanolol, reference compound] strictly below 2%?
// result Condition not met

----------
assay: Parallel Artificial Membrane Permeability Assay (PAMPA); format: in vitro ADME; conditions: 200 μM, pH 7.4, 20% 1-propanol cosolvent, 4 h, room temperature
ENDPOINT: %Membrane retention
Write the quantity with the unit trailing the number.

Example cases with answers are listed next.
>  <MOLECULE>
CO[C@]12CC[C@@]3(C/C1=C(\C)C(C)(C)C)[C@H]1Cc4ccc(O)c5c4[C@@]3(CCN1C(=O)[C@H](CC(C)C)NC(=O)[C@H](Cc1ccccc1)NC(=O)CNC(=O)CNC(=O)[C@@H](N)Cc1ccc(O)cc1)[C@H]2O5

>  <%Membrane retention>
30.9%

$$$$
>  <MOLECULE>
CSCC[C@H](NC(=O)[C@H](Cc1ccccc1)NC(=O)CNC(=O)CNC(=O)[C@@H](N)Cc1ccc(O)cc1)C(=O)O [Standard Met-enkephalin, Met-enkephalin, reference compound]

>  <%Membrane retention>
0%

$$$$
>  <MOLECULE>
CC(C)NCC(O)COc1cccc2ccccc12 (stereo not drawn) [Propanolol, reference compound]

>  <%Membrane retention>
21.8%

$$$$
>  <MOLECULE>
COc1ccc2c3c1O[C@@H]1[C@]34CCN(C(=O)[C@H](CCSC)NC(=O)[C@H](Cc3ccccc3)NC(=O)CNC(=O)CNC(=O)[C@@H](N)Cc3ccc(O)cc3)[C@H](C2)[C@]42CC[C@@]1(OC)/C(=C(\C)C(C)(C)C)C2

>  <%Membrane retention>
0%

$$$$
>  <MOLECULE>
CO[C@]12CC[C@@]3(CC1=C(C)C(C)(C)C)[C@H]1Cc4ccc(O)c5c4[C@@]3(CCN1C(=O)c1ccccc1C(=O)N[C@@H](Cc1ccc(O)cc1)C(=O)NCC(=O)NCC(=O)N[C@@H](Cc1ccccc1)C(=O)N[C@@H](CC(C)C)C(=O)O)[C@H]2O5

>  <%Membrane retention>
0%

$$$$
>  <MOLECULE>
COc1ccc2c3c1O[C@@H]1[C@]34CCN(C(=O)[C@H](CCSC)NC(=O)[C@H](Cc3ccccc3)NC(=O)CNC(=O)CNC(=O)[C@@H](N)Cc3ccc(O)cc3)[C@H](C2)[C@]42CC[C@@]1(OC)/C(=C(/C)C(C)(C)C)C2

>  <%Membrane retention>
0%

$$$$
>  <MOLECULE>
CC(C)C[C@H](NC(=O)[C@H](Cc1ccccc1)NC(=O)CNC(=O)CNC(=O)[C@@H](N)Cc1ccc(O)cc1)C(=O)O [Standard Leu-enkephalin, Leu-enkephalin, reference compound]

>  <%Membrane retention>
0%

$$$$
>  <MOLECULE>
CO[C@]12CC[C@@]3(C/C1=C(/C)C(C)(C)C)[C@H]1Cc4ccc(O)c5c4[C@@]3(CCN1C(=O)[C@H](CC(C)C)NC(=O)[C@H](Cc1ccccc1)NC(=O)CNC(=O)CNC(=O)[C@@H](N)Cc1ccc(O)cc1)[C@H]2O5

>  <%Membrane retention>
10.3%

$$$$

// query Any idea what %Membrane retention was measured for CO[C@]12CC[C@@]3(CC1=C(C)C(C)(C)C)[C@H]1Cc4ccc(O)c5c4[C@@]3(CCN1C(=O)CCC(=O)N[C@@H](Cc1ccc(O)cc1)C(=O)NCC(=O)NCC(=O)N[C@@H](Cc1ccccc1)C(=O)N[C@@H](CC(C)C)C(=O)O)[C@H]2O5 ?
// result 0%
